molecular target: Cell division cycle 7-related protein kinase (Homo sapiens, UniProt O00311); experiment: Inhibition of CDC7 in human SW-620 cells assessed as reduction in phosphorylation of MCM2 at Ser40 residue incubated for 48 hrs by Western blot analysis; assay type: cell-based
Sequence (O00311 whole entry): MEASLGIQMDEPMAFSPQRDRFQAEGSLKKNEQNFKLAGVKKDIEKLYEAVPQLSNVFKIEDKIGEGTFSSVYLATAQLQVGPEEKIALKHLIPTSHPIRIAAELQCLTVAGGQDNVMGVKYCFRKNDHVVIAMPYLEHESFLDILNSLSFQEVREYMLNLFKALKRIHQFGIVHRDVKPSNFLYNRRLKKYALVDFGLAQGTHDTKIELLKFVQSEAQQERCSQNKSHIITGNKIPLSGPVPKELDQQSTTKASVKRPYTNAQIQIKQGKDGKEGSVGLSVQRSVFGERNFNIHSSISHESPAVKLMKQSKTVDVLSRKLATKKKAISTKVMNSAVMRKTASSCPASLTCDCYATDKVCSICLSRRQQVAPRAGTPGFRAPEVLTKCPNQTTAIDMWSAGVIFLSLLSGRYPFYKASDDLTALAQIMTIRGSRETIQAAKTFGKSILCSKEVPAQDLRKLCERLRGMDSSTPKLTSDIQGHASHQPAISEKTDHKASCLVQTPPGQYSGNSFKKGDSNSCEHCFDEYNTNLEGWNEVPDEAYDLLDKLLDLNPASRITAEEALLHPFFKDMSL
property: IC50 (nM)

{"columns": ["molecule", "value units", "number"],
 "data": [
  ["CCOC(=O)C1=C(NN2CCN(CC(F)(F)F)CC2)O/C(=C\\c2c[nH]c3ncccc23)C1=O [MONZOSERTIB]", "nM", 36]
]}

---

assay: Inhibition of human CDC7/ASK using FITC-labelled MCM2 substrate in presence of 1 mM of ATP
pIC50: −log10 of the molar value.
Short version: pIC50 at least 6 is Condition met, less is Condition not met.

{"columns": ["mol", "qualitative label"],
 "data": [
  ["CCOC(=O)C1=C(N2CCOCC2)O/C(=C\\c2c[nH]c3ncccc23)C1=O", "Condition not met"],
  ["CCOC(=O)C1=C(N2CCCN(C)CC2)O/C(=C\\c2c[nH]c3ncccc23)C1=O", "Condition not met"],
  ["CCOC(=O)C1=C(Nc2ccccc2Cl)O/C(=C\\c2c[nH]c3ncccc23)C1=O", "Condition met"],
  ["CCOC(=O)C1=C(NN2CCN(CC(F)(F)F)CC2)O/C(=C\\c2c[nH]c3ncccc23)C1=O", "Condition met"]
]}
